# System: cancer cell lines of Table 2
# assay: Multiplexed cytotoxicity assay: cell proliferation (relative cell count IC50, GI50)
# Format: cell-based
# test-conditions: Homo sapiens, NALM-6, NALM6, Leukemia
experimental-readout: pIC50
Entry type: numeric. Quantity: pIC50, the -log10 of concentration in molar units.

Q: Given the entry C[C@]1(C(N)=O)CC[C@@H](n2c(Nc3c(Cl)cc(Cl)cc3Cl)nc3cnc(N[C@@H]4CCOC[C@H]4F)nc32)CC1 [Compound 1] , report its measured pIC50.
Result: 5.00

====

# System: cancer cell lines of Table 2
# assay: Multiplexed cytotoxicity assay: cell proliferation (relative cell count IC50, GI50)
# Assay type: cell-based
# test-conditions: Homo sapiens, PFSK-1, PFSK1, CNS, Glioma
experimental-readout: pIC50
Answer as the number alone; pIC50 is minus log10 of concentration in mol/L.

Q: # lookup: pIC50 of C[C@]1(C(N)=O)CC[C@@H](n2c(Nc3c(Cl)cc(Cl)cc3Cl)nc3cnc(N[C@@H]4CCOC[C@H]4F)nc32)CC1
Result: 5.00

====

# Test system: cancer cell lines of Table 2
# assay: Multiplexed cytotoxicity assay: cell proliferation (relative cell count IC50, GI50)
# Type: cell-based
# test-conditions: Homo sapiens, SK-NEP-1, SKNEP1, Kidney
experimental-readout: pIC50
To interpret pIC50, take it as minus log10 of a concentration measured in moles per litre.

Q: For cancer cell lines of Table 2, provide pIC50 of C[C@]1(C(N)=O)CC[C@@H](n2c(Nc3c(Cl)cc(Cl)cc3Cl)nc3cnc(N[C@@H]4CCOC[C@H]4F)nc32)CC1 [Compound 1] please.
Result: 5.00

====

# Tested on: cancer cell lines of Table 2
# assay: Multiplexed cytotoxicity assay: cell proliferation (relative cell count IC50, GI50)
# Assay type: cell-based
# test-conditions: Homo sapiens, U-118-MG, U118MG, CNS, Glioma
experimental-readout: pIC50
# pIC50: negative log10 of molar concentration; output just the value

Q: // pIC50 lookup, key: C[C@]1(C(N)=O)CC[C@@H](n2c(Nc3c(Cl)cc(Cl)cc3Cl)nc3cnc(N[C@@H]4CCOC[C@H]4F)nc32)CC1
Result: 5.00

====

# Test system: cancer cell lines of Table 2
# assay: Multiplexed cytotoxicity assay: cell proliferation (relative cell count IC50, GI50)
# Format: cell-based
# test-conditions: KPL-1, KPL1, Breast
experimental-readout: IC50 (µM)
Report only the number, with the unit µM understood.

Q: Can you share its IC50? I mean this compound: C[C@]1(C(N)=O)CC[C@@H](n2c(Nc3c(Cl)cc(Cl)cc3Cl)nc3cnc(N[C@@H]4CCOC[C@H]4F)nc32)CC1 [Compound 1]
Result: 10

====

# System: cancer cell lines of Table 2
# assay: Multiplexed cytotoxicity assay: cell proliferation (relative cell count IC50, GI50)
# Assay type: cell-based
# test-conditions: J82, Bladder
experimental-readout: IC50
Kindly format the answer as number then unit.

Q: What does the record list as IC50 for C[C@]1(C(N)=O)CC[C@@H](n2c(Nc3c(Cl)cc(Cl)cc3Cl)nc3cnc(N[C@@H]4CCOC[C@H]4F)nc32)CC1 [Compound 1] ?
Result: 10 µM

====

# System: cancer cell lines of Table 2
# assay: Multiplexed cytotoxicity assay: cell proliferation (relative cell count IC50, GI50)
# Format: cell-based
# test-conditions: Homo sapiens, NCI-H596, NCIH596; Lung; NSCLC
experimental-readout: IC50 (µM)
Report the figure in µM without appending any unit label.

Q: # input compound: C[C@]1(C(N)=O)CC[C@@H](n2c(Nc3c(Cl)cc(Cl)cc3Cl)nc3cnc(N[C@@H]4CCOC[C@H]4F)nc32)CC1 [Compound 1] ; wanted: its IC50
Result: 10

====

# Test system: cancer cell lines of Table 2
# assay: Multiplexed cytotoxicity assay: cell proliferation (relative cell count IC50, GI50)
# Type: cell-based
# test-conditions: KLE; Female GU; Uterus
experimental-readout: pIC50
// returns pIC50 (minus log10 of molar concentration), number only

Q: // query pIC50 value for entry C[C@]1(C(N)=O)CC[C@@H](n2c(Nc3c(Cl)cc(Cl)cc3Cl)nc3cnc(N[C@@H]4CCOC[C@H]4F)nc32)CC1 [Compound 1]
Result: 5.00

====

# Tested on: cancer cell lines of Table 2
# assay: Multiplexed cytotoxicity assay: cell proliferation (relative cell count IC50, GI50)
# Type: cell-based
# test-conditions: Homo sapiens, A704, A704, Kidney
experimental-readout: IC50 (µM)
Write it as a number; the unit µM goes unstated.

Q: Need IC50 of C[C@]1(C(N)=O)CC[C@@H](n2c(Nc3c(Cl)cc(Cl)cc3Cl)nc3cnc(N[C@@H]4CCOC[C@H]4F)nc32)CC1 , thanks.
Result: 10

====

# Tested on: cancer cell lines of Table 2
# assay: Multiplexed cytotoxicity assay: cell proliferation (relative cell count IC50, GI50)
# Format: cell-based
# test-conditions: Homo sapiens, CAPAN-1, CAPAN1; Pancreas
experimental-readout: pIC50
Give only the number. pIC50 is defined as minus log10 of concentration in molar units.

Q: Consider the compound C[C@]1(C(N)=O)CC[C@@H](n2c(Nc3c(Cl)cc(Cl)cc3Cl)nc3cnc(N[C@@H]4CCOC[C@H]4F)nc32)CC1 [Compound 1] and give its measured pIC50.
Result: 5.00
